biological target: Ba/F3 stable cells (Homo sapiens, UniProt P00533, DUP771-773, cells depend on it); construct: EC50 Ba/F3-EGFR H773-V774insNPH; other: Ba/F3-EGFR H773-V774insNPH cells, 72 h, CCK-8; test: EC50 assay: Ba/F3 stable cell proliferation (CCK-8, 72 h); assay type: cell-based; details: Ba/F3-EGFR H773-V774insNPH cells
Sequence (P00533 with tags, fused parts or gaps DUP771-773): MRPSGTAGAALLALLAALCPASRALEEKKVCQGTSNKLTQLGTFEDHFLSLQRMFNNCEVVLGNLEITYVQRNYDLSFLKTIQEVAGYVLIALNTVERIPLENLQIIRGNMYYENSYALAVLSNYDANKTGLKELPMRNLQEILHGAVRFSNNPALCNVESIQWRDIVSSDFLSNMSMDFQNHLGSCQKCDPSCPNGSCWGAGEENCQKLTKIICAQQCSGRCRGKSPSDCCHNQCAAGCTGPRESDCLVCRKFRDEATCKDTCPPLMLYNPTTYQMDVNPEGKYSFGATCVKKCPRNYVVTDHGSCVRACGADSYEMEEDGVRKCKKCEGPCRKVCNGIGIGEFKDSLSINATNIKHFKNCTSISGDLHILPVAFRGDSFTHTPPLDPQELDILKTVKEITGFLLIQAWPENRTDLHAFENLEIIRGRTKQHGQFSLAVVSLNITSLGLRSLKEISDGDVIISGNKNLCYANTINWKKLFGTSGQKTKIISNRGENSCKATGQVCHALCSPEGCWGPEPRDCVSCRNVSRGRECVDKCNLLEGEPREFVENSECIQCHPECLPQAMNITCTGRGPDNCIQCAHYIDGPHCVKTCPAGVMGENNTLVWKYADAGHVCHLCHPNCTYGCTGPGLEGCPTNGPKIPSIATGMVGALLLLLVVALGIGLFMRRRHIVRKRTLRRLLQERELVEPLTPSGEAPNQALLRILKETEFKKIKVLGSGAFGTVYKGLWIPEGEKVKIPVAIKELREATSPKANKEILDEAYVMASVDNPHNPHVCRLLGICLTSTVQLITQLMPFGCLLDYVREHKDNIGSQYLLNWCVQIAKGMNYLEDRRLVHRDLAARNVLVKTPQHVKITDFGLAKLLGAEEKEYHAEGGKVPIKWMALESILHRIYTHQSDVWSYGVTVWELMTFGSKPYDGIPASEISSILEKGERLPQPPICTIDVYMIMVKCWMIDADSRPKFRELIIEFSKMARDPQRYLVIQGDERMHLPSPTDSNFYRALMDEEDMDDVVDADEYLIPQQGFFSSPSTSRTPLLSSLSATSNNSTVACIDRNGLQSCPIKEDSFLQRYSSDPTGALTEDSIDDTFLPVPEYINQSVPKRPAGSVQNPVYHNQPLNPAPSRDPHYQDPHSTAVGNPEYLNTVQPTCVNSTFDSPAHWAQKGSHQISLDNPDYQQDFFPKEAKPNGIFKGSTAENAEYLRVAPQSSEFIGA
pEC50: −log10 of the molar value.
parameter: pEC50

Worked set:
| compound | obsValue |
| --- | --- |
| C=CC(=O)N1CC(c2cc3c(Nc4cccc5ccccc45)ncnc3cc2OC)C1 [Compound 4] | ≥ 6.70 |
| C=CC(=O)N1CCC=C(c2ccc3ncnc(Nc4ccc(Cl)c(Cl)c4F)c3c2)C1 [Compound 187] | 6.00 to 6.70 |
| C=CC(=O)N1CCC(Oc2cc3c(OCc4cccc(Cl)c4)ncnc3cc2OC)CC1 [Compound 107] | 6.00 to 6.70 |
| C=CS(=O)(=O)N1CCC(Oc2cc3c(C(=O)c4ccc(Cl)c(Cl)c4F)ncnc3cc2OC)CC1 [Compound 193] | 6.00 to 6.70 |
| C#CC(=O)N1CCC=C(c2cc3c(Nc4ccc(Cl)c(Cl)c4F)ncnc3cc2OC)C1 [Compound 63] | ≥ 6.70 |
| C=CC(=O)N1CC(c2cc3c(Nc4ccc(Cl)c(Cl)c4F)ncnc3cc2OC2CCOCC2)C1 [Compound 27] | ≥ 6.70 |

-- ask # input compound: C=CC(=O)N1CCC(Oc2cc3c(NC(C(N)=O)c4cccc(Cl)c4)ncnc3cc2OC)CC1 (stereo not drawn) [Compound 127] ; wanted: its pEC50
-- reply < 6.00

-- ask # input compound: C=CC(=O)NC1CC(Oc2cc3c(Nc4ccc5c(c4)CCCC5=O)ncnc3cc2OC)C1 (stereo not drawn) [Compound 70] ; wanted: its pEC50
-- reply < 6.00

-- ask # input compound: [2H]C([2H])([2H])Oc1cc2ncnc(Nc3ccc(Cl)c(Cl)c3F)c2cc1C1CN(C(=O)C(=C)F)C1 [Compound 39] ; wanted: its pEC50
-- reply < 6.00
